- System: MCF7 breast
- PROTOCOL TEXT: NCI tumour cell line growth inhibition, 48 h
OBSERVED PROPERTY: TGI (µM)
Write the number in µM without appending the unit.

These solved cases illustrate the format of a correct answer.
CN1C(=O)c2cc([N+](=O)[O-])ccc2[C@H]2C(=O)c3cc4c(cc3[C@H]21)OCO4 : 0.451
Cc1ccc(/C=C/C(=O)c2ccc(N)cc2)c(C)c1 : 37.2
CCOC(=O)/C=C(\C(=O)OCC)n1cnc2c(N)ncnc21 : 11.9
O=C1/C(=C/c2ccc([N+](=O)[O-])o2)Oc2ccccc21 : 3.11

Fill in reported TGI for this entry: `CC(=O)[O-].[Ni].c1ccc(/C(=N\Nc2ccccn2)c2ccccn2)cc1`
30.7

Fill in reported TGI for this entry: `COc1cc(/C=C/c2sc3ccccc3[n+]2C)ccc1N(C)C`
19.5

Fill in reported TGI for this entry: `C=C(CN(C)C)C(=O)c1cc(C)ccc1C`
11.5

Fill in reported TGI for this entry: `Oc1ccccc1Nc1nc2ccccc2c2occc12`
51.8

Fill in reported TGI for this entry: `c1ccc2c(-c3nc4ccccc4[nH]3)cccc2c1`
37.9
